Each recorded value in this set is attributed to patent US8809627B2.

tested-on: UniProt:O24529
Sequence (O24529 whole entry): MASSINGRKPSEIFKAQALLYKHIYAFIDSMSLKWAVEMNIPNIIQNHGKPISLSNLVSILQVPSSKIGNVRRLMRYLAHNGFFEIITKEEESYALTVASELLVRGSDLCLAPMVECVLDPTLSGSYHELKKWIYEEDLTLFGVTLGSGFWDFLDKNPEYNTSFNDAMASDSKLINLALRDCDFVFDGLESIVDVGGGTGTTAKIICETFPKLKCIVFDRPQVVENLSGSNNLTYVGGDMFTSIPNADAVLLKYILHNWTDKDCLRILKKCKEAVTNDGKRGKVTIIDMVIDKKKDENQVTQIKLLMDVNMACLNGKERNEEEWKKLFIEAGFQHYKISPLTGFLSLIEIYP
assay-name: OMT assays with purified recombinant MsI7OMT (relative activity)
Format: biochemical
conditions: 50 μM S-adenosyl methionine, 100 μM acceptor substrate; most converted substrate = 100%
Experimental: Cloning of MtIOMT5 (corresponding to TC 100926, TIGR MtGI v.8) was as described previously (Liu et al., 2005). To obtain a full-length cDNA for MtIOMT2, specific primers designed based upon the M. truncatula genomic sequence were used to amplify the MtIOMT2 coding sequence from M. truncatula root cDNA. […] All MtIOMTs were expressed as translational fusions to an N-terminal His-tag. […] Protein concentration was determined by Bradford assay using BSA as a standard (Bradford, 1976). […]
measurement-label: Relative activity, MsI7OMT (%)

compound: O=c1oc2cc(O)ccc2c2oc3cc(O)ccc3c12
measurement-label: Relative activity, MsI7OMT
endpoint-value: 0

compound: O=c1c(-c2ccc(O)cc2)coc2cc(O)ccc12
measurement-label: Relative activity, MsI7OMT
endpoint-value: 21.6

compound: O=c1c(O)c(-c2cc(O)c(O)c(O)c2)oc2cc(O)cc(O)c12
measurement-label: Relative activity, MsI7OMT
endpoint-value: 0

compound: O=c1c(-c2ccc(O)cc2)coc2cc(O)c(O)cc12 [6,7,4′-trihydroxyisoflavone]
measurement-label: Relative activity, MsI7OMT
endpoint-value: 51.8
